system.under.test: 5-LO (Homo sapiens)
Sequence (P09917 1-674): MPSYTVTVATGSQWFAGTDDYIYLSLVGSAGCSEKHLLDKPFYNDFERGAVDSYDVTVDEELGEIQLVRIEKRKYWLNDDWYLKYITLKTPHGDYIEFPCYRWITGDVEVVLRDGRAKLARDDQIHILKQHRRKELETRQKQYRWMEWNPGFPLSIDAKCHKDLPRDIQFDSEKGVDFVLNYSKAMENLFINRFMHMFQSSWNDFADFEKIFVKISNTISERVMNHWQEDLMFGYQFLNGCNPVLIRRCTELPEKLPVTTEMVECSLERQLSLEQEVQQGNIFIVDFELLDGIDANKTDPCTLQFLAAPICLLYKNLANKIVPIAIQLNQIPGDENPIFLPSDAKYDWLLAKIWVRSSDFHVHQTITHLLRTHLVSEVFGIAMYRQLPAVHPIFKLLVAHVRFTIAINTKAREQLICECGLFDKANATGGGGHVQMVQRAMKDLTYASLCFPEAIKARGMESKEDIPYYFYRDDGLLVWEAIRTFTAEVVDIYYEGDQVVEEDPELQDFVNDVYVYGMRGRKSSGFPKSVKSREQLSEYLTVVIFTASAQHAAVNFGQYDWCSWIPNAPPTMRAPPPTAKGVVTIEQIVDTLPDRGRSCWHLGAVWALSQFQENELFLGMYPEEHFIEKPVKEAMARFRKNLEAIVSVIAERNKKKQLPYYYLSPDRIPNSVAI
experiment.notes: Activity of purified human recombinant 5-LO (cell-free)
Assay type: biochemical
Design: made in house; host or cells: E. coli Bl21 (DE3)
measurement.parameters: cell-free; mean ± s.e.m., n = 3; read-out: IC50, human recombinant 5-LO
property.name: pIC50
Units for pIC50: none; it is -log10 of a concentration expressed in mol/L.

Answered examples (2):
[[record]]
structure_string = "CC(C)=CCC/C(C)=C/CC/C(C)=C/CC[C@]1(C)CCc2cc(O)c(C)c(C)c2O1"
system_under_test = "5-LO (Homo sapiens)"
value = 6.70

[[record]]
structure_string = "CC(C)=CCC/C(C)=C/CC/C(C)=C/CC[C@]1(C)CCc2c(C)c(O)c(C)c(C)c2O1"
system_under_test = "5-LO (Homo sapiens)"
value = 6.48


## Input Complete the entry with pIC50 for "C/C(=C\CC/C(C)=C/CC/C(C)=C/CC[C@]1(C)CCc2c(C)c(O)c(C)c(C)c2O1)CO"
## Output 6.96

## Input Tell me its pIC50 given "C/C(=C/CC/C(C)=C/CC/C(C)=C/CC[C@]1(C)CCc2cc(O)c(C)c(C)c2O1)CO" as the entry.
## Output 6.92

## Input State, in one line, measured pIC50 of "Cc1c(O)cc2c(c1C)O[C@](C)(CCC[C@H](C)CCC[C@H](C)CCCC(C)C)CC2"
## Output 6.04

## Input Provide measured pIC50 value, entry: "CC(C)=CCC/C(C)=C/CC/C(C)=C/CC[C@]1(C)CCc2c(C)c(O)cc(C)c2O1"
## Output 6.72

## Input Annotate the molecule "C/C(=C\CC/C(C)=C/CC/C(C)=C/CC[C@]1(C)CCc2cc(O)cc(C)c2O1)CO" with its measured pIC50.
## Output 6.82
